protocol summary: physchem
experimental context: water
reported metric: solubility

# input Could you please provide reported solubility for CC(/C=C/C=C(\C)C(=O)O)=C\C=C\C=C(C)\C=C\C=C(/C)C(=O)O [TSC, Trans sodium crocetinate] ? Thanks!
# output ~10000 µg/mL

###

protocol summary: physchem
experimental context: water, pH 8
reported metric: solubility

# input Could you please provide reported solubility for CC(/C=C/C=C(\C)C(=O)O)=C\C=C\C=C(C)\C=C\C=C(/C)C(=O)O [TSC, Trans sodium crocetinate] ? Thanks!
# output > 10000 µg/mL
